Measured T1/2, listed per entry for reference.
- tested_target: T1, Peptide B (human PAR-2), N-terminal biotinylated (Human)
- T1 construct: also called Peptide B N-Term
- T1 peptide: Biotin-GGGGSSLIGKVDGTSHVTG
- assay_details: SPR, peptide immobilized
Where no end group is shown, it is not given here. The star is where a group is joined. Biotin = O=C1N[C@H]2[C@H](CS[C@H]2CCCCC(=O)*)N1
Kindly provide the numeric value in min only, without the unit symbol.

query: Quote T1/2 reported for H4H584P (antibody, human IgG4, V domains shown, also called H1H584P variable regions) VH: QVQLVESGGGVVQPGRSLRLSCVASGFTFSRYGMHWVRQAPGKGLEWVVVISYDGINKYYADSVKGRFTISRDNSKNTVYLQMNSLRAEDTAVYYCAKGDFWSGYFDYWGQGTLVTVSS VL: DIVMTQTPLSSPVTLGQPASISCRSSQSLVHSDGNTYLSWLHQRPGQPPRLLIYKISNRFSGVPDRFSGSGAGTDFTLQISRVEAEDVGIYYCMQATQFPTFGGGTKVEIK please.
result: 30

query: Fill in reported T1/2 for this entry: H4H585P (antibody, human IgG4, V domains shown, also called H1H585P variable regions) VH: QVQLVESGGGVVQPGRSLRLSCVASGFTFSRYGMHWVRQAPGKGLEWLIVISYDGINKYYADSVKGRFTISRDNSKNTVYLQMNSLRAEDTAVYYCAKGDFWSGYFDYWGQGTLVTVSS VL: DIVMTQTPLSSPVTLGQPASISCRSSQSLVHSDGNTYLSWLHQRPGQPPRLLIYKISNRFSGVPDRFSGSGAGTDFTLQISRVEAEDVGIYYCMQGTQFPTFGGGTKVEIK
result: 63

query: Complete the entry with T1/2 for H4H581P (antibody, human IgG4, V domains shown, also called mAb H4H581P; H1H581P variable regions) VH: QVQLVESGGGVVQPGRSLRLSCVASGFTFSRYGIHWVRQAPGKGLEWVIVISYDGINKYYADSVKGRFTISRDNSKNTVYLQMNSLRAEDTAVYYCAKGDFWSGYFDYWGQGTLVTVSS VL: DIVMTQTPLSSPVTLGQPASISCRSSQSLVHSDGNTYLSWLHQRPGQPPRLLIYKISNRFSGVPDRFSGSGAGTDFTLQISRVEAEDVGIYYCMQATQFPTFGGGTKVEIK
result: 38

Now turn to the next binder.
query: State, in one line, measured T1/2 of H4H579P (antibody, human IgG4, V domains shown, also called H1H579P variable regions) VH: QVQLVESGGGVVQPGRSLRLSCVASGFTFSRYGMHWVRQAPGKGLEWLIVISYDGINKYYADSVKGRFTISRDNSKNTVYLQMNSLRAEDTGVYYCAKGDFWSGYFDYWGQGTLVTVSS VL: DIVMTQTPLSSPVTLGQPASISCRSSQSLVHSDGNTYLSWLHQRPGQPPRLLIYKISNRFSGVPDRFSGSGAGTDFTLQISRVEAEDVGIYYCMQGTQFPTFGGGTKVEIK
result: 55

Recorded values, source patent US20110059095A1.
